Test system: cotton aphid (Aphis gossypii)
Experiment: Aphis gossypii test (APHIGO spray treatment)
Format: in vivo
Conditions: Aphis gossypii, 144 h; 100 ppm a.i. alone; cotton leaves sprayed; 6 days; read-out: Kill in % after 6 days a.i.
The entries below are paired with their reported pest or weed control at 100 ppm.
readout-type: pest or weed control at 100 ppm (%)

compound="C#CCN(Cc1ccc(Cl)nc1)C1=CC(=O)CCC1 [Compound I-36]" readout_type="pest or weed control at 100 ppm" value_reported=55
compound="CCCN(Cc1ccc(Cl)nc1)C1=CC(=O)CCC1 [Compound I-34]" readout_type="pest or weed control at 100 ppm" value_reported=15
compound="CCN(Cc1ccc(Cl)nc1)C1=CC(=O)CCC1 [Compound I-39]" readout_type="pest or weed control at 100 ppm" value_reported=45
compound="CN(Cc1ccc(Cl)nc1)C1=CC(=O)CCC1 [Compound I-38]" readout_type="pest or weed control at 100 ppm" value_reported=45

* * *

The entries below are paired with their reported pest or weed control at 20 ppm.
System: green peach aphid (Myzus persicae)
Assay: Myzus persicae test (MYZUPE)
Assay type: in vivo
Settings: Myzus persicae, 144 h; 20 ppm a.i. alone; pepper plants sprayed; 6 days; read-out: Kill in % after 6 days a.i.
Experimental: Myzus persicae Test (MYZUPE) Solvent: 7 parts by weight of dimethylformamide Emulsifier: 2 parts by weight of alkylaryl polyglycol ether To prepare an appropriate active ingredient formulation, 1 part by weight of active ingredient is mixed with the given amounts of solvent and emulsifier, and the concentrate is diluted with emulsifier-containing water to the desired concentration. […] After the desired time, the kill rate in % is determined. […]
readout-type: pest or weed control at 20 ppm

record_smiles=O=C1C=C(NCc2ccc(Cl)nc2)CCC1 value_reported=20%
record_smiles=C#CCN(Cc1ccc(Cl)nc1)C1=CC(=O)CCC1 value_reported=40%
record_smiles=O=C1C=C(N(Cc2ccc(F)nc2)C2CC2)CO1 value_reported=65%
record_smiles=O=C1C=C(N(Cc2ccc(Cl)nc2)C2CC2)CC1 value_reported=80%
record_smiles=O=C1C=C(N(Cc2ccc(C(F)(F)F)nc2)C2CC2)CO1 value_reported=75%
record_smiles=CCN(Cc1ccc(Cl)nc1)C1=CC(=O)CCC1 value_reported=20%
record_smiles=C=CCN(Cc1ccc(Cl)nc1)C1=CC(=O)OC1 value_reported=15%

* * *

Test system: green peach aphid (Myzus persicae)
Test: Myzus persicae test (MYZUPE)
Format: in vivo
Conditions: Myzus persicae, 144 h; 100 ppm a.i. alone; pepper plants sprayed; 6 days; read-out: Kill in % after 6 days a.i.
readout-type: pest or weed control at 100 ppm (%)

record_smiles=CN(Cc1cccnc1)C1=CC(=O)OC1 units_of_measure=% value_reported=50
record_smiles=CCCN(Cc1ccc(Cl)nc1)C1=CC(=O)CCC1 units_of_measure=% value_reported=40
record_smiles=CCN(Cc1ccc(Cl)nc1)C1=CC(=O)CCC1 units_of_measure=% value_reported=85
record_smiles=C#CCN(Cc1ccc(Cl)nc1)C1=CC(=O)OC1 units_of_measure=% value_reported=40

* * *

The entries below are paired with their reported Kill in % after 6 days +RME.
Test system: cotton aphid (Aphis gossypii)
Test: Aphis gossypii test (APHIGO spray treatment)
Format: in vivo
Conditions: 4 ppm a.i. + rapeseed oil methyl ester 1000 ppm; cotton leaves sprayed; 6 days
readout-type: Kill in % after 6 days +RME (%)

compound="O=C1C=C(N(Cc2ccc(F)nc2)C2CC2)CO1 [Compound I-22]" system_under_test="cotton aphid (Aphis gossypii)" readout_type="Kill in % after 6 days +RME" value_reported=55
compound="O=C1C=C(N(CCF)Cc2cnc(Cl)s2)CO1 [Compound I-4]" system_under_test="cotton aphid (Aphis gossypii)" readout_type="Kill in % after 6 days +RME" value_reported=65
compound="CN(Cc1cccnc1)C1=CC(=O)OC1 [Compound I-21]" system_under_test="cotton aphid (Aphis gossypii)" readout_type="Kill in % after 6 days +RME" value_reported=50
compound="O=C1C=C(N(Cc2cnc(Br)c(F)c2)C2CC2)CO1 [Compound I-12]" system_under_test="cotton aphid (Aphis gossypii)" readout_type="Kill in % after 6 days +RME" value_reported=85
compound="O=C1C=C(N(Cc2cnc(Br)c(F)c2)CC(F)F)CO1 [Compound I-16]" system_under_test="cotton aphid (Aphis gossypii)" readout_type="Kill in % after 6 days +RME" value_reported=98
compound="CN(Cc1ccc(Cl)nc1)C1=C(F)C(=O)OC1 [Compound I-28]" system_under_test="cotton aphid (Aphis gossypii)" readout_type="Kill in % after 6 days +RME" value_reported=75
compound="C#CCN(Cc1ccc(Cl)nc1)C1=CC(=O)OC1 [Compound I-33]" system_under_test="cotton aphid (Aphis gossypii)" readout_type="Kill in % after 6 days +RME" value_reported=65

* * *

The entries below are paired with their reported Kill in % after 6 days +RME.
System: cotton aphid (Aphis gossypii)
Experiment: Aphis gossypii test (APHIGO spray treatment)
Format: in vivo
Details: 4 ppm a.i. + rapeseed oil methyl ester 1000 ppm; cotton leaves sprayed; 6 days
readout-type: Kill in % after 6 days +RME (%)

compound=O=C1C=C(N(Cc2cnc(Cl)c(F)c2)C2CC2)CO1 value_reported=75
compound=CON(Cc1ccc(Cl)nc1)C1=CC(=O)OC1 value_reported=50
compound="CC1OC(=O)C=C1N(C)Cc1ccc(Cl)nc1 (centres unmarked)" value_reported=75
compound=CN(Cc1cnc(Cl)c(Cl)c1)C1=CC(=O)OC1 value_reported=85
compound=O=C1C=C(N(Cc2ccc(Cl)nc2)C2CC2)CC1 value_reported=85

* * *

The entries below are paired with their reported Kill in % after 6 days +AMS + RME.
System: cotton aphid (Aphis gossypii)
Experiment: Aphis gossypii test (APHIGO spray treatment)
Format: in vivo
Details: 0.8 ppm a.i. + AMS and RME 1000 ppm each; cotton leaves sprayed; 6 days
readout-type: Kill in % after 6 days +AMS + RME (%)

record_smiles=O=C1C=C(N(Cc2ccc(Cl)nc2)CC(F)F)CO1 units_of_measure=% value_reported=80
record_smiles=O=C1C=C(N(Cc2ccc(Cl)nc2)C2CC2)CC1 units_of_measure=% value_reported=50
record_smiles=O=C1C=C(N(Cc2ccc(F)nc2)CC(F)F)CO1 units_of_measure=% value_reported=90
record_smiles=CN(Cc1ccc(Cl)nc1)C1=CC(=O)CC1 units_of_measure=% value_reported=90
record_smiles=O=C1C=C(N(Cc2cnc(Cl)c(F)c2)C2CC2)CO1 units_of_measure=% value_reported=20
record_smiles=CN(Cc1cnc(Cl)c(F)c1)C1=CC(=O)OC1 units_of_measure=% value_reported=75
record_smiles=O=C1C=C(N(CCF)Cc2ccc(Br)nc2)CO1 units_of_measure=% value_reported=95
record_smiles=O=C1C=C(N(Cc2cnc(Cl)c(Cl)c2)C2CC2)CO1 units_of_measure=% value_reported=30
record_smiles=CN(Cc1cnc(Br)c(F)c1)C1=CC(=O)OC1 units_of_measure=% value_reported=99
record_smiles=CN(Cc1ccc(C(F)(F)F)nc1)C1=CC(=O)OC1 units_of_measure=% value_reported=25

* * *

Test system: green peach aphid (Myzus persicae)
Assay: Myzus persicae test (MYZUPE)
Format: in vivo
Details: 20 ppm a.i. + ammonium sulphate 1000 ppm; pepper plants sprayed; 6 days
readout-type: Kill in % after 6 days +AMS (%)

record_smiles=O=C1C=C(N(Cc2ccc(C(F)(F)F)nc2)C2CC2)CO1 units_of_measure=% value_reported=90
record_smiles=C#CCN(Cc1ccc(Cl)nc1)C1=CC(=O)CCC1 units_of_measure=% value_reported=25
record_smiles=CCN(Cc1ccc(Cl)nc1)C1=CC(=O)CCC1 units_of_measure=% value_reported=25
record_smiles=C=CCN(Cc1ccc(Cl)nc1)C1=CC(=O)OC1 units_of_measure=% value_reported=100
record_smiles=O=C1C=C(N(Cc2ccc(Cl)nc2)C2CC2)CC1 units_of_measure=% value_reported=80
record_smiles=O=C1C=C(N(Cc2ccc(F)nc2)C2CC2)CO1 units_of_measure=% value_reported=80
record_smiles=O=C1C=C(NCc2ccc(Cl)nc2)CCC1 units_of_measure=% value_reported=35

* * *

Test system: green peach aphid (Myzus persicae)
Assay: Myzus persicae test (MYZUPE)
Format: in vivo
Details: 20 ppm a.i. + rapeseed oil methyl ester 1000 ppm; pepper plants sprayed; 6 days
readout-type: Kill in % after 6 days +RME (%)

compound="O=C1C=C(N(Cc2ccc(Cl)nc2)C2CC2)CC1 [Compound I-19]" system_under_test="green peach aphid (Myzus persicae)" units_of_measure=% value_reported=98
compound="O=C1C=C(N(Cc2ccc(F)nc2)C2CC2)CO1 [Compound I-22]" system_under_test="green peach aphid (Myzus persicae)" units_of_measure=% value_reported=85
compound="C#CCN(Cc1ccc(Cl)nc1)C1=CC(=O)CCC1 [Compound I-36]" system_under_test="green peach aphid (Myzus persicae)" units_of_measure=% value_reported=85
compound="CCN(Cc1ccc(Cl)nc1)C1=CC(=O)CCC1 [Compound I-39]" system_under_test="green peach aphid (Myzus persicae)" units_of_measure=% value_reported=80
compound="O=C1C=C(N(Cc2ccc(C(F)(F)F)nc2)C2CC2)CO1 [Compound I-24]" system_under_test="green peach aphid (Myzus persicae)" units_of_measure=% value_reported=95
compound="C=CCN(Cc1ccc(Cl)nc1)C1=CC(=O)OC1 [Compound I-32]" system_under_test="green peach aphid (Myzus persicae)" units_of_measure=% value_reported=98
compound="O=C1C=C(NCc2ccc(Cl)nc2)CCC1 [Compound I-37]" system_under_test="green peach aphid (Myzus persicae)" units_of_measure=% value_reported=90
